Target: T1, GST-human NOGO-A56 (human, UniProt Q9NQC3 586-785)
T1 construct: also called hNOGO; recombinant human NOGO; not shown: Glutathione S-transferase (GST) tag encoded by vector pGEX-6P1, N-terminal to the NOGO-A fragment; the tag and linker se
T1 sequence: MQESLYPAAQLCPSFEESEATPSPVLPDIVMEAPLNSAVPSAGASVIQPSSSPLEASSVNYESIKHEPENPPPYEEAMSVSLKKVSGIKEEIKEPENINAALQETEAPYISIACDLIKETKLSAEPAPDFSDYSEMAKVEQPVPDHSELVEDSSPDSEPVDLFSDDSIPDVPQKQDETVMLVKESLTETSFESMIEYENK
Test: SPR off-rate ranking (Biacore), CHO-K1 transfection supernatant over GST-human NOGO-A56 chip; single experiment
Protocol: hNOGO (GST-human NOGO-A56) was immobilised to a CM5 chip by primary amine coupling using the Biacore Wizard program designed for targeted immobilisation levels. The CM5 sensor surface was activated by passing a solution of 50 mM N-hydroxy-succinimide (NHS) and 200 mM N-ethyl-N′-dimethylaminopropyl carbonide (EDC). […] The hNOGO chip was prepared as for kinetic analysis. […] These were passed directly over the sensor surface and the interaction measured. […]
Reported koff by item:
Please respond with the number in s⁻¹ and leave the unit unwritten.

Binder	Endpoint name	Value observed
H14L18 (antibody, human IgG1, kappa, V domains shown, Humanised 2A10; human gamma-1 mutated constant region, human kappa) VH: QVQLVQSGAEVVKPGASVKLSCKASGYTFTSYWMHWVKQAPGQGLEWIGNINPSNGGTNYNEKFKSRATLTRDTSTSTAYMELSSLRSEDTAVYYCELGQGYWGQGTLVTVSS VL: DIVMTQDPLSNPVTLGQPVSISCRSSKSLLYKDGKTYLNWFLQRPGQSPQLLIYLMSTRASGVSDRFSGSGSGTDFTLKISRVEAEDVGVYYCQQLVEYPLTFGQGTKLEIKR	koff	0.00835
H15L18 (antibody, human IgG1, kappa, V domains shown, Humanised 2A10; tested as CHO-K1 transfection supernatant; Human gamma-1 mutated constant region, human kappa) VH: QVQLVQSGAEVVKPGASVKLSCKASGYTFTSYWMHWVKQRPGQGLEWIGNINPSNGGTNYNEKFKSKATLTVDTSSSTAYMELSSLRSEDSAVYYCELGQGYWGQGTLVTVSS VL: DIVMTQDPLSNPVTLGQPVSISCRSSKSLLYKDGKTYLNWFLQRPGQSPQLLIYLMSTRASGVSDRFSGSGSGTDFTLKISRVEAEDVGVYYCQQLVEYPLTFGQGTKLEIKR	koff	0.00594

API: the following record is the query input.
Entry H14L13 (antibody, human IgG1, kappa, V domains shown, Humanised 2A10; tested as CHO-K1 transfection supernatant; Human gamma-1 mutated constant region, human kappa) VH: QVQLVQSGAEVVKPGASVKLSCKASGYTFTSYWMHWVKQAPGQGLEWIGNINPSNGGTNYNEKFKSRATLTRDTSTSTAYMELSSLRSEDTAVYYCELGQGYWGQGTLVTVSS VL: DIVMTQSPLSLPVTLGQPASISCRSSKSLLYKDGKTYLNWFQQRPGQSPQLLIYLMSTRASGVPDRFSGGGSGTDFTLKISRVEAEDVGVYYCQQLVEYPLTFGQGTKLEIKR ; koff = 0.0138
